biological target: human Beta-secretase (BACE), BACE1 (gene 23621); experiment: NVS_ENZ_hBACE: NovaScreen (NVS) Enzymatic Assay for human Beta-secretase (BACE) (AID 2283140);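 further: hits are inhibitors that reduce fluorescent substrate signal versus DMSO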
Results filed as inconclusive are left out. The source made the active and inactive calls. How the source made its calls: active means hit-call score of the fitted dose curve at least 0.9, where 1 is the maximum; inconclusive means response in the unintended direction; inactive means score below 0.9.
REPORTED_ENDPOINT: AC50

chem_smiles=CC[C@H](C)C(=O)O[C@H]1C[C@H](O)C=C2C=C[C@H](C)[C@H](CC[C@@H](O)C[C@@H](O)CC(=O)O)[C@H]21 reported_endpoint=AC50 reported_result=inactive
chem_smiles=OCc1c[nH]c2ccccc12 reported_endpoint=AC50 reported_result="25 µM (active)"
chem_smiles=C=CCc1cc(S(=O)(=O)c2ccc(O)c(CC=C)c2)ccc1O reported_endpoint=AC50 reported_result="15.2 µM (active)"
chem_smiles=O=C(N[C@H](CO)[C@H](O)c1ccc([N+](=O)[O-])cc1)C(Cl)Cl reported_endpoint=AC50 reported_result=inactive

Short answer for S=P(N1CC1)(N1CC1)N1CC1 : AC50 was 22.4 µM (active)

###

assay: CCTE_Shafer_MEA_acute_spike_number: CCTE's Neural Acute Assay for Total Number of Spikes, Shafer Lab (AID 2284008)
Active and inactive are the calls of the source. Rule for the calls: active = hit-call score of the fitted dose curve at least 0.9, where 1 is the maximum; inactive = score below 0.9.
The categories you may choose from are active, inactive

molecule="CCCCCCCC1CCC(=O)O1 (stereo unspecified)" cat=inactive

**Q:** What was the test verdict on c1ccc(C(O[C@@H]2CCCN(CCc3ccc4c(c3)OCO4)C2)c2ccccc2)cc1 ?
**A:** inactive

**Q:** What was the test verdict on OC(CCl)CCl ?
**A:** inactive

**Q:** What was the test verdict on CCCCCCCC/C=C\CCCCCCCC(=O)OC[C@@H](O)[C@H]1OC[C@H](O)[C@H]1O ?
**A:** inactive

**Q:** What was the test verdict on COCc1nnc(-c2ccc[n+]([O-])c2)n1-c1c(Cl)c(Cl)cc2[nH]c(=O)c(=O)[nH]c12 ?
**A:** inactive

**Q:** What was the test verdict on c1ccc2cc3ccccc3cc2c1 ?
**A:** active

**Q:** What was the test verdict on Cn1c(=O)c2[nH]cnc2n(C)c1=O ?
**A:** inactive

**Q:** What was the test verdict on CC(C)C(=O)Nc1ccc([N+](=O)[O-])c(C(F)(F)F)c1 ?
**A:** active

**Q:** What was the test verdict on OCc1ccccc1 ?
**A:** inactive

**Q:** What was the test verdict on CCCCC(CC)C(=O)OCCOCCOCCOC(=O)C(CC)CCCC (stereo unspecified) ?
**A:** inactive

**Q:** What was the test verdict on COc1cc2c(c(OC)c1OC)-c1ccc(OC)c(=O)cc1[C@@H](NC(C)=O)CC2 ?
**A:** inactive

###

read-out: Pyruvate Dehydrogenase Kinase 4 (PDK4), PDK4 (gene 5166); assay: LTEA_HepaRG_PDK4: Life Technologies and Expression Analysis (LTEA) Assay for Pyruvate Dehydrogenase Kinase 4 (PDK4) using HepaRG (AID 2283525); details: mRNA level, 48 h; actives raise or lower the signal
Calls of active or inactive are those of the source. The calls were made as follows: active = hit-call score of the fitted dose curve at least 0.9, where 1 is the maximum; inactive = score below 0.9.
The categories you may choose from are 1 (active), 0 (inactive)

**Q:** What was the test verdict on CCCOc1ccc(S(=O)(=O)N2CCN(CC)CC2)cc1-c1nc2c(CC)n(Cc3ccccn3)nc2c(=O)[nH]1 ?
**A:** 1

**Q:** What was the test verdict on NC(=O)N1c2ccccc2C=Cc2ccccc21 ?
**A:** 0

**Q:** What was the test verdict on Nc1ccn([C@@H]2O[C@H](CO)[C@@H](O)[C@@H]2O)c(=O)n1 ?
**A:** 0

**Q:** What was the test verdict on CNC(C)=O ?
**A:** 0

**Q:** What was the test verdict on c1ccc2cc3ccccc3cc2c1 ?
**A:** 0
